# Study System: GlunN1/GluN2A glutamate receptors (Homo sapiens (Human), UniProt Q05586+Q12879)
# Sequence (Q12879 23-1464, other chains not shown): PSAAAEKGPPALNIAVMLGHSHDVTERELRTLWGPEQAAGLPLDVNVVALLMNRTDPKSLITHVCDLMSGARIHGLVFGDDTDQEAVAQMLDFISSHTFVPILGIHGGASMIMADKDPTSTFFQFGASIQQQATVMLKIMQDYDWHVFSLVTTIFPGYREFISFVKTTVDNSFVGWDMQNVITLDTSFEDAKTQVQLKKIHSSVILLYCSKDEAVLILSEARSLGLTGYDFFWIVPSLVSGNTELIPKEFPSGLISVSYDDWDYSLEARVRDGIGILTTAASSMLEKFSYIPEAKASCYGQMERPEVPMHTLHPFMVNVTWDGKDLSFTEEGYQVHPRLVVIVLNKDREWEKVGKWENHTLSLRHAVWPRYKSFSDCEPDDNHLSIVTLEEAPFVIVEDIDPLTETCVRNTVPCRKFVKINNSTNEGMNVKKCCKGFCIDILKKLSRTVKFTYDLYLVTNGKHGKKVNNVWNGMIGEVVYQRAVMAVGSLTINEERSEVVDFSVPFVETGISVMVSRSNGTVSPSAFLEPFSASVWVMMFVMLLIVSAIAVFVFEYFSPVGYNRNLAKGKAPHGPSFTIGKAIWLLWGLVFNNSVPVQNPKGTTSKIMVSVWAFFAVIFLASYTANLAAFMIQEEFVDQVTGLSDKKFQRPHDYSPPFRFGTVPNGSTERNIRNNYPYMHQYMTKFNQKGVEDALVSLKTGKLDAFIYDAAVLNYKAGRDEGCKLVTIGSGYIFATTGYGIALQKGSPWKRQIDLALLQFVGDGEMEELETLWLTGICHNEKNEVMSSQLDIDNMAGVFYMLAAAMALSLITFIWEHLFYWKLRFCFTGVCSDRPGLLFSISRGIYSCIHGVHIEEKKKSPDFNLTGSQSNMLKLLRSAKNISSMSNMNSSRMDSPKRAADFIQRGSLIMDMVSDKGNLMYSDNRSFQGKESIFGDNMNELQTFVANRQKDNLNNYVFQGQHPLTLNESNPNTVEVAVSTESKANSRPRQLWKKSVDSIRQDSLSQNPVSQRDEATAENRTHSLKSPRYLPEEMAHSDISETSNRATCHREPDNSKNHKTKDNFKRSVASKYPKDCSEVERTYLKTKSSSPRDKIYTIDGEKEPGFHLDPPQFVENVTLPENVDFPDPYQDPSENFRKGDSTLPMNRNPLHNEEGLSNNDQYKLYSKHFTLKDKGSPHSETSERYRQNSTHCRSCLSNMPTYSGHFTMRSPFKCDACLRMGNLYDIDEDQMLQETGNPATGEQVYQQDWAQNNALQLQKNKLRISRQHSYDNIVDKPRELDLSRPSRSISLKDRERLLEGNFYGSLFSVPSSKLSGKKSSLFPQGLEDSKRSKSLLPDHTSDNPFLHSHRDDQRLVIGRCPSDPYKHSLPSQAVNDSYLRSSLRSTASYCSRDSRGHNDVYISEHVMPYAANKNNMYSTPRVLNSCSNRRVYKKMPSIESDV
# Measurement Notes: Whole-cell patch clamp of mammalian cells (Ionworks Barracuda), positive allosteric modulation, GluN1/GluN2A
# Format: cell-based
Provide the recorded EC50 for the entries that follow.
Give bare numbers, in nM.

Compound	EC50 (nM)
C[C@H](CCC(O)C1CCOCC1)[C@H]1CC[C@H]2[C@@H]3CC[C@H]4C[C@](O)(C(F)(F)F)CC[C@]4(C)[C@H]3CC[C@]12C (stereo partly shown)	317

Now consider the entry below.
Asked: Query: EC50; subject: CC[C@]1(O)CC[C@@]2(C)C(=CC[C@H]3[C@@H]4CC[C@H]([C@H](C)CC[C@H](O)c5cccc(F)c5)[C@@]4(C)CC[C@@H]32)C1
Given back: 519

###

# Study System: GluN2B glutamate receptors (Homo sapiens (Human), UniProt Q05586+Q13224)
# Sequence (Q13224 27-1484, other chains not shown): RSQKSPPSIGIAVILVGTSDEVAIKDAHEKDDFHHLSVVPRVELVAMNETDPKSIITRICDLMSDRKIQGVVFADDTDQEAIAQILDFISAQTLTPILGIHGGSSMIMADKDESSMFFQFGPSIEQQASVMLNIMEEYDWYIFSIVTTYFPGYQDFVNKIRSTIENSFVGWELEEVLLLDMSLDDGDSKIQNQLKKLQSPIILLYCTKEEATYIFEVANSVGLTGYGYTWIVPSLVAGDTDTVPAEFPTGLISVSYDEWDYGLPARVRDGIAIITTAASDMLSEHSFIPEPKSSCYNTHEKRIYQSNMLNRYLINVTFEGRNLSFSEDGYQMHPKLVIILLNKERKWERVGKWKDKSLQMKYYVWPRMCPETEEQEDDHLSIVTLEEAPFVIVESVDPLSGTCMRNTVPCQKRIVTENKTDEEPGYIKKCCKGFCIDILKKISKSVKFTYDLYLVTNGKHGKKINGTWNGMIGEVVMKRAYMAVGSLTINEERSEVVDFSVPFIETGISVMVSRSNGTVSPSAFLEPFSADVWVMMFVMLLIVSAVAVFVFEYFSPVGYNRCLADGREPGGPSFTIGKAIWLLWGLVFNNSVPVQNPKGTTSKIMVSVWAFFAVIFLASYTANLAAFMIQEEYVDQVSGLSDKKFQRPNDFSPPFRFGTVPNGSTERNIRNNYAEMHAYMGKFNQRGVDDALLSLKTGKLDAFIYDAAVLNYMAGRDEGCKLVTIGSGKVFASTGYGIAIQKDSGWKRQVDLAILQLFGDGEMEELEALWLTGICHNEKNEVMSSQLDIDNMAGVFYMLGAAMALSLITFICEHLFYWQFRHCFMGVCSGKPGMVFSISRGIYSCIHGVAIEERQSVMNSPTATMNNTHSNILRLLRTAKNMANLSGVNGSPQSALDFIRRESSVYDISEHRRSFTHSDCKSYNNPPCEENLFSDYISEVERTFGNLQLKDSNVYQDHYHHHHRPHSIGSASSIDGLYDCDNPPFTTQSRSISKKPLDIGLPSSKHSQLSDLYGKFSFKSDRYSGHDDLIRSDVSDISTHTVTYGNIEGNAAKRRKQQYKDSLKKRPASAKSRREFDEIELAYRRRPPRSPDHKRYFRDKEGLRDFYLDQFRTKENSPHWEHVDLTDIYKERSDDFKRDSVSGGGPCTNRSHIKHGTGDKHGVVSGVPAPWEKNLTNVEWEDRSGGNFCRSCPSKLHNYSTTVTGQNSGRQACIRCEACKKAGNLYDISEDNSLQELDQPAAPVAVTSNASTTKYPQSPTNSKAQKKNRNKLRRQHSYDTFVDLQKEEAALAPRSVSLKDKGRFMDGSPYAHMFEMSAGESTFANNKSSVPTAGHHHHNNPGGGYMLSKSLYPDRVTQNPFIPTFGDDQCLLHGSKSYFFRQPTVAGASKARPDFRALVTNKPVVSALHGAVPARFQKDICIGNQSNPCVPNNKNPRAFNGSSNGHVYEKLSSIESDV
# Measurement Notes: Whole-cell patch clamp of mammalian cells (Ionworks Barracuda), positive allosteric modulation, GluN2B
# Type: cell-based
# Condition Details: read-out: Avg Emax 2B (%)
Provide the recorded Emax for the entries that follow.
Numbers only, in %.

Some entries whose results are on file:
Input Smiles	Study System	Measurement Unit	Emax
C[C@H](CC[C@]1(O)CC[C@@H](C)CC1)[C@H]1CC[C@H]2[C@@H]3CC[C@H]4C[C@](O)(C(F)(F)F)CC[C@]4(C)[C@H]3CC[C@]12C	GluN2B glutamate receptors (Homo sapiens (Human), UniProt Q05586+Q13224)	%	164
CC[C@@H](O)CCC[C@@H](C)[C@H]1CC[C@H]2[C@@H]3CC=C4C[C@](O)(CC)CC[C@@H]4[C@H]3CC[C@]12C	GluN2B glutamate receptors (Homo sapiens (Human), UniProt Q05586+Q13224)	%	30.1

Now consider the entry below.
Asked: Query: Emax; subject: C[C@H](CC[C@@]1(O)CCOC1)[C@H]1CC[C@H]2[C@@H]3CC=C4C[C@](O)(C(F)(F)F)CC[C@]4(C)[C@H]3CC[C@]12C
Given back: 146

###

# Study System: GluN2B glutamate receptors (Homo sapiens (Human), UniProt Q05586+Q13224)
# Measurement Notes: Whole-cell patch clamp of mammalian cells (Ionworks Barracuda), positive allosteric modulation, GluN2B
# Format: cell-based
# Condition Details: co-application with EC20 L-glutamate and 30 μM glycine; 8-point concentration-response; read-out: Avg EC50 2B
Response field label: string, one of true (EC50 strictly below 200 nM) or false.

Compound	Category
C[C@H](CCCC(C)(C)O)[C@H]1CC[C@H]2[C@@H]3CC[C@H]4C[C@](O)(C(F)(F)F)CC[C@]4(C)[C@H]3CC[C@]12C	true
CC[C@]1(O)CC[C@H]2C(=CC[C@@H]3[C@@H]2CC[C@]2(C)[C@@H]([C@H](C)CCC(C)(C)O)CC[C@@H]32)C1	false
CC[C@]1(O)CC[C@H]2C(=CC[C@@H]3[C@@H]2CC[C@]2(C)[C@@H]([C@H](C)CCCC4(O)CC4)CC[C@@H]32)C1	false
CC[C@]1(O)CC[C@@]2(C)[C@@H](CC[C@@H]3[C@@H]2CC[C@]2(C)[C@@H]([C@H](C)CC[C@H](O)c4cccnc4)CC[C@@H]32)C1	false
CC[C@]1(O)CC[C@H]2C(=CC[C@@H]3[C@@H]2CC[C@]2(C)[C@@H]([C@H](C)CCC[C@@H](O)C(F)(F)F)CC[C@@H]32)C1	false
C[C@H](CCC[C@@H](O)C(F)(F)F)[C@H]1CC[C@H]2[C@@H]3CC[C@H]4C[C@](O)(C(F)(F)F)CC[C@]4(C)[C@H]3CC[C@]12C	false

Asked: Confirm or reject: EC50 of CC[C@]1(O)CC[C@H]2C(=CC[C@@H]3[C@@H]2CC[C@]2(C)[C@@H]([C@H](C)CCCC4(O)CCC(F)(F)CC4)CC[C@@H]32)C1 lies strictly below 200 nM
Given back: true

Asked: Confirm or reject: EC50 of C[C@H](CCC(O)C1CCC1)[C@H]1CC[C@H]2[C@@H]3CC[C@H]4C[C@](O)(C(F)(F)F)CC[C@]4(C)[C@H]3CC[C@]12C (stereo partly drawn) lies strictly below 200 nM
Given back: false

Asked: Confirm or reject: EC50 of C[C@H](CC[C@]1(O)CCOC1)[C@H]1CC[C@H]2[C@@H]3CC[C@H]4C[C@](O)(C(F)(F)F)CC[C@]4(C)[C@H]3CC[C@]12C lies strictly below 200 nM
Given back: true

###

# Study System: GlunN1/GluN2A glutamate receptors (Homo sapiens (Human), UniProt Q05586+Q12879)
# Measurement Notes: Whole-cell patch clamp of mammalian cells (Ionworks Barracuda), positive allosteric modulation, GluN1/GluN2A
# Type: cell-based
# Condition Details: HEK293, read-out: Avg Emax 2A (%)
Result Type: Emax (%)
Numbers only, in %.

Some entries whose results are on file:
Input Smiles	Emax [%]
C[C@H](CC[C@]1(O)CC[C@@H](C)CC1)[C@H]1CC[C@H]2[C@@H]3CC[C@H]4C[C@](O)(C(F)(F)F)CC[C@]4(C)[C@H]3CC[C@]12C	106
CC[C@@H](O)CCC[C@@H](C)[C@H]1CC[C@H]2[C@@H]3CC=C4C[C@](O)(CC)CC[C@@H]4[C@H]3CC[C@]12C	15.6

Now consider the entry below.
Asked: Query: Emax; subject: CC(C)[C@H](O)CCC[C@@H](C)[C@H]1CC[C@H]2[C@@H]3CC[C@H]4C[C@](O)(C(F)(F)F)CC[C@]4(C)[C@H]3CC[C@]12C
Given back: 142

###

Provide the recorded Emax for the entries that follow.
# Study System: GlunN1/GluN2A glutamate receptors (Homo sapiens (Human), UniProt Q05586+Q12879)
# Measurement Notes: Whole-cell patch clamp of mammalian cells (Ionworks Barracuda), positive allosteric modulation, GluN1/GluN2A
# Type: cell-based
# Condition Details: HEK293 cells; % potentiation of current elicited with EC20 L-glutamate and 30 μM glycine; read-out: Avg Emax 2A (%)
Numbers only, in %.

Some entries whose results are on file:
Molecule	Study System	Measurement Unit	Emax
C[C@H](CC[C@@H](O)C1CCCCC1)[C@H]1CC[C@H]2[C@@H]3CC[C@H]4C[C@](O)(C(F)(F)F)CC[C@]4(C)[C@H]3CC[C@]12C	GlunN1/GluN2A glutamate receptors (Homo sapiens (Human), UniProt Q05586+Q12879)	%	10.6
C[C@H](CC[C@@H](C)O)[C@H]1CC[C@H]2[C@@H]3CC[C@H]4C[C@](O)(C(F)(F)F)CC[C@]4(C)[C@H]3CC[C@]12C	GlunN1/GluN2A glutamate receptors (Homo sapiens (Human), UniProt Q05586+Q12879)	%	205
C[C@H](CC[C@@H](O)C1CCOCC1)[C@H]1CC[C@H]2[C@@H]3CC[C@H]4C[C@](O)(C(F)(F)F)CC[C@]4(C)[C@H]3CC[C@]12C	GlunN1/GluN2A glutamate receptors (Homo sapiens (Human), UniProt Q05586+Q12879)	%	126
C[C@H](CCCO)[C@H]1CC[C@H]2[C@@H]3CC[C@H]4C[C@](O)(C(F)(F)F)CC[C@]4(C)[C@H]3CC[C@]12C	GlunN1/GluN2A glutamate receptors (Homo sapiens (Human), UniProt Q05586+Q12879)	%	180

Asked: Query: Emax; subject: CCC(O)CC[C@@H](C)[C@H]1CC[C@H]2[C@@H]3CC=C4C[C@](O)(CC)CC[C@@H]4[C@H]3CC[C@]12C (some centres unmarked)
Given back: 252

###

# Study System: GlunN1/GluN2A glutamate receptors (Homo sapiens (Human), UniProt Q05586+Q12879)
# Measurement Notes: Whole-cell patch clamp of mammalian cells (Ionworks Barracuda), positive allosteric modulation, GluN1/GluN2A
# Type: cell-based
# Condition Details: HEK293, read-out: Avg Emax 2A (%)
Result Type: Emax (%)
Answers are plain numbers, in %.

Input Smiles	Emax [%]
CC[C@H](O)CC[C@@H](C)[C@H]1CC[C@H]2[C@@H]3CC[C@H]4C[C@](O)(CC)CC[C@@H]4[C@H]3CC[C@]12C	73.6

Fill in Emax for each of the 2 compounds listed.
1. C[C@H](CC[C@](C)(O)C(F)(F)F)[C@H]1CC[C@H]2[C@@H]3CC=C4C[C@@](C)(O)CC[C@@H]4[C@H]3CC[C@]12C
2. CC[C@]1(O)CC[C@H]2C(=CC[C@@H]3[C@@H]2CC[C@]2(C)[C@@H]([C@H](C)CC[C@@H](O)C(C)(C)C)CC[C@@H]32)C1

Given back:
[66.5, 252]

###

# Study System: GlunN1/GluN2A glutamate receptors (Homo sapiens (Human), UniProt Q05586+Q12879)
# Measurement Notes: Whole-cell patch clamp of mammalian cells (Ionworks Barracuda), positive allosteric modulation, GluN1/GluN2A
# Format: cell-based
# Condition Details: HEK293, read-out: Avg Emax 2A (%)
Provide the recorded Emax for the entries that follow.
Numbers only, in %.

Fill in Emax for each of the 5 molecules listed.
1. C[C@H](CCC(C)(O)c1ccccc1)[C@H]1CC[C@H]2[C@@H]3CC=C4C[C@@](C)(O)CC[C@]4(C)[C@H]3CC[C@]12C (some centres unmarked) [Compound 456]
2. C[C@H](CCC(O)C(C)(C)C)[C@H]1CC[C@H]2[C@@H]3CC[C@H]4C[C@](O)(C(F)(F)F)CC[C@]4(C)[C@H]3CC[C@]12C (some centres unmarked) [Compound 3]
3. C[C@H](CCC1(O)CCC(OC(F)F)CC1)[C@H]1CC[C@H]2[C@@H]3CC[C@H]4C[C@](O)(C(F)(F)F)CC[C@]4(C)[C@H]3CC[C@]12C (some centres unmarked) [Compound 5131]
4. CCC(O)CCC[C@@H](C)[C@H]1CC[C@H]2[C@@H]3CC=C4C[C@](O)(CC)CC[C@@H]4[C@H]3CC[C@]12C (some centres unmarked) [Compound 10673]
5. C[C@H](CC[C@@]1(O)CCOC1)[C@H]1CC[C@H]2[C@@H]3CC=C4C[C@](O)(C(F)(F)F)CC[C@]4(C)[C@H]3CC[C@]12C [Compound 3495]

Given back:
[53.4, 556, 52.9, 216, 107]
